# test_method_notes: in vitro
# setup_conditions: Beagle, dog, plasma
Outcome label depends on fraction unbound at 5 h relative to 0.2: at/above gives true, below gives false.

[ask] Could you verify whether the entry CCNC(=O)Nc1nc2cc(-c3cccnc3)cc(-c3ncccc3F)c2[nH]1 shows fraction unbound at 5 h of no less than 0.2?
[reply] false

[ask] Could you verify whether the entry O=C(NCC12CC3CC(CC(C3)C1)C2)c1cc(OC2CCNCC2)ccc1Cl shows fraction unbound at 5 h of no less than 0.2?
[reply] false

[ask] Could you verify whether the entry NC(=O)N1c2ccccc2C=Cc2ccccc21 [CARBAMAZEPINE] shows fraction unbound at 5 h of no less than 0.2?
[reply] true

[ask] Could you verify whether the entry CNc1cc2[nH]c(=O)n(-c3ccc(NC(=O)NS(=O)(=O)c4ccc(Cl)s4)cc3)c(=O)c2cc1F shows fraction unbound at 5 h of no less than 0.2?
[reply] false

[ask] Could you verify whether the entry C[C@H]1CN(Cc2cc(Cl)ccc2OCC(=O)O)CCN1C(=O)Cc1ccccc1 shows fraction unbound at 5 h of no less than 0.2?
[reply] false

[ask] Could you verify whether the entry CCS(=O)(=O)c1ccc(-c2cc(C(F)(F)F)ccc2OCC(=O)O)c(C)c1 shows fraction unbound at 5 h of no less than 0.2?
[reply] false

[ask] Could you verify whether the entry Cc1cn([C@H]2CCCN([C@@H](C)c3ccc(C(=O)O)c(Oc4cccc(Cl)c4)c3)C2)c(=O)[nH]c1=O shows fraction unbound at 5 h of no less than 0.2?
[reply] false

[ask] Could you verify whether the entry O=C(O)COc1ccc(Cl)cc1CN1CCN(S(=O)(=O)c2ccccc2)CC1 shows fraction unbound at 5 h of no less than 0.2?
[reply] false

[ask] Could you verify whether the entry COc1ccc(CCN2C(=O)N(NS(C)(=O)=O)C[C@H]2c2ccc(OC)cc2)cc1 shows fraction unbound at 5 h of no less than 0.2?
[reply] false

[ask] Could you verify whether the entry Cc1cn([C@H]2CCCN([C@H](CC(C)C)c3ccc(C(=O)O)c(Oc4cccc(Cl)c4)c3)C2)c(=O)[nH]c1=O shows fraction unbound at 5 h of no less than 0.2?
[reply] false

====

# test_method_notes: in vitro
# setup_conditions: human, hepatocytes
// returns class 0 unless hepatocyte CLint is strictly below 40 µL/min/1e6 cells, in which case class 1

[ask] Strictly below 40 µL/min/1e6 cells: is that where hepatocyte CLint of CCOC(=O)C1=C(C)NC(C)=C(C(C)=O)[C@H]1c1cccc2c(=O)cc(C)oc12 sits?
[reply] class 0

====

# test_method_notes: physchem
Let's look at some compounds and their measured pKa.

Reference set, count: 2
Cc1ccnc(N)c1N : 7.2
CN(C)c1ccccc1S(=O)(=O)NC(=O)N1CCC(N2CCC(Oc3ccc(Cl)c(Cl)c3)CC2)CC1 : 8.6

[ask] Consider the compound Cc1ccc2c(c1)c(-c1ccnc3c(Cl)cccc13)c(C)n2CC(=O)O and give its measured pKa.
[reply] 4.4

[ask] Consider the compound CCCc1c2nc(C(=O)O)cc(NC)c2cc2c(=O)cc(C(=O)O)oc12 and give its measured pKa.
[reply] 8.8

[ask] Consider the compound COc1c(C)c2c(c(O)c1C/C=C(\C)CCC(=O)OCCN1CCOCC1)C(=O)OC2 [MYCOPHENOLATE MOFETIL] and give its measured pKa.
[reply] 6.06

[ask] Consider the compound CCOC(=O)N1CCC(Nc2cc(Cl)ccn2)CC1 and give its measured pKa.
[reply] 5.3
